Reference for the values: ChEMBL document CHEMBL1201862

System: SK-MEL-28
Test: NCI tumour cell line growth inhibition, 48 h
Calls of active or inactive are those of the source. Cut-off read from the data, not from the text of the source: active = GI50 up to about 1.1 µM and inactive = higher.
Entries and their GI50 values follow.

Just so you know, measured GI50 for C[C@]12Cc3cn[nH]c3C(=O)C1CC[C@@H]1C2CC[C@@]2(C)C1CC[C@@H]2O (some centres undefined) came out at > 100 µM (inactive)

Just so you know, measured GI50 for Cc1ccc2c(c1)NC(=O)C(N=[N+]=[N-])(c1ccccc1)C2=O (centres undefined) came out at 45.1 µM (inactive)

Just so you know, measured GI50 for Clc1ccc(CCNCCNC2(c3cc4ccccc4s3)CCCCC2)cc1Cl came out at 1.79 µM (inactive)

Just so you know, measured GI50 for CN1C(=O)CCC1c1ccc2c(c1)oc(=O)n2C (centres undefined) came out at > 100 µM (inactive)

Just so you know, measured GI50 for Cc1ccc(S(=O)(=O)Oc2nc3nc4ccccc4nc3nc2OS(=O)(=O)c2ccc(C)cc2)cc1 came out at > 100 µM (inactive)

Just so you know, measured GI50 for C=CCCN1CCc2c([nH]c3ccccc23)C1C(=O)O (centres undefined) came out at > 100 µM (inactive)

Just so you know, measured GI50 for CC1=CC[C@H](C(C)C)C(C(O)[C@@H](C)O[Si](c2ccccc2)(c2ccccc2)C(C)(C)C)C1=O (some centres undefined) came out at 32.3 µM (inactive)

Just so you know, measured GI50 for Cc1c(S(=O)(=O)O)ccc(/N=N/c2c(O)c(C(=O)O)cc3ccccc23)c1Cl came out at > 100 µM (inactive)

Just so you know, measured GI50 for C[C@]12CC[C@H](O)CC1=CC[C@@H]1[C@@H]2CC[C@]2(C)C(=N/O)/C(=C/c3ccc([N+](=O)[O-])cc3)C[C@@H]12 came out at 5.9 µM (inactive)

---

Test system: SF-539
Assay: NCI tumour cell line growth inhibition, 48 h
Active and inactive are the calls of the source. Cut-off read from the data, not from the text of the source: active = GI50 up to about 1.1 µM and inactive = higher.
Mark one answer only. Choices: label 1 for active, label 0 for inactive

CC(=O)Nc1ccc(N2C(=O)/C(=C\c3cccc(Oc4ccccc4)c3)SC2c2ccccc2)cc1 (stereo unspecified)
label 0
Brc1cccc(/N=N/N2CCCC2)c1
label 0
Cc1cc(C(=O)NCCN(C)C)c2nc3ccccc3cc2c1
label 0
NCCCNCCCCN1CC1
label 1
N#Cc1ccccc1Nc1ccccc1S
label 0
COC1C(O)C(C)OC(OC2C(Oc3cccc4c(O)c5c(=O)oc6ccc(C)c7c(=O)oc(c34)c5c67)OC(C)C3O[C@H](c4ccccc4)OC32)C1O (stereo partly specified)
label 1

Query: Hey, what did the test say about COC(=O)[C@]1(C)CCC[C@@]2(C)C1CCC1=C[C@@]3(C(C)C)CC[C@]12OO3 (stereo partly specified) ?
Response: label 0

---

Test system: PC-3
Test: NCI tumour cell line growth inhibition, 48 h
Calls of active or inactive are those of the source. No stated cut-off is given here; in the data, active = GI50 up to about 1.1 µM and inactive = higher.
Mark one answer only. Choices: active, inactive

CN(C)CCCc1c[nH]c2ccccc12
inactive
CCOc1cc(CCNC)c2c(ccc3ccc(OC)c(O)c32)c1OC
inactive
CN(C)c1ccc2nc3c(C(=O)O)cc(O)c(O)c3[o+]c2c1
inactive
CC[P+](c1ccccc1)(N(C)C)N(C)C
inactive
C[C@]12OC(=O)[C@]3(O)CC[C@H]4[C@@H](C[C@@H](O)[C@@]5(Cl)CC=CC(=O)[C@]45C)[C@]45OCC6C(=O)O[C@@H]1C[C@@]6(C)[C@H](C4=O)[C@@]32O5 (some centres undefined)
inactive

Query: Hey, what did the test say about COC1C(N)C(OC2C(Oc3cccc4c(O)c5c(=O)oc6ccc(C)c7c(=O)oc(c34)c5c67)OC(C)C(O)C2(C)O)OC(C)C1O (centres undefined) ?
Response: active

Query: Hey, what did the test say about Cc1c(C)c(C)c(-n2c(=O)n(C)c(=O)n2-c2cc(C(C)(C)C)cc(C(C)(C)C)c2O)c(C)c1C ?
Response: inactive

Query: Hey, what did the test say about C=CCn1c(=O)c2ccccc2[n+]2c(-c3cccc([N+](=O)[O-])c3)csc12 ?
Response: inactive

Query: Hey, what did the test say about CN(C)C(=O)NCCN1CCCCCc2ccccc21 ?
Response: inactive

---

Tested on: Hs-578T
Assay: NCI tumour cell line growth inhibition, 48 h
Activity calls are given as the source filed them. No stated cut-off is given here; in the data, active = GI50 up to about 1.1 µM and inactive = higher.
Mark one answer only. Choices: active, inactive

[O-][S+]1SC(=S)C2C=CC=CC21 (centres undefined)
inactive
Cc1n(Cc2ccccc2)c2c([n+]1C)C(=O)c1ccccc1C2=O
active
C[C@@H]1O[C@@H](O[C@H]2CC[C@]3(C=O)[C@H]4CC[C@]5(C)[C@@H](C6=CC(=O)OC6)CC[C@]5(O)[C@@H]4CC[C@]3(O)C2)[C@H](O)[C@H](O)[C@H]1O [CONVALLATOXIN]
active
COc1cccc(OCC(=N/NC(=O)c2ccncc2)/N=C/c2ccncc2)c1
inactive
O=C1N=C(S)NNC12c1ccccc1-c1ccccc12
inactive
N#CCN(Cc1ccccc1)[C@H]1CCC[C@]1(O)/C=C/c1ccc2c(c1)OCO2
inactive
COc1ccc(N2C(=O)CSC2c2cc(OC)c(OC)c(OC)c2)cc1 (centres undefined)
inactive
O=C(/C=C/c1ccc(OCc2ccccc2)cc1)NCc1ccc(C(=O)NCc2ccccc2)cc1
inactive

Note: attention shifts to another entry.
Query: Hey, what did the test say about CC(C)=CCC/C(C)=C/CO [GERANIOL] ?
Response: inactive

---

Tested on: TK-10
Experiment: NCI tumour cell line growth inhibition, 48 h
Activity calls are given as the source filed them. No stated cut-off is given here; in the data, active = GI50 up to about 1.1 µM and inactive = higher.
Mark one answer only. Choices: active, inactive

COC1CCC(OC)C(C2(C3CC(OC)CCC3OC)OC(=O)c3ccccc32)C1 (stereo not given)
inactive

Query: Hey, what did the test say about CC(=O)OCC1OC(n2ccc(=O)[nH]c2=O)C(OC(C)=O)C(OC(C)=O)C1OC(C)=O (stereo not given) ?
Response: inactive

Query: Hey, what did the test say about Clc1ccc(-c2ccc(-c3nn4c(CNc5ccccc5)nnc4s3)o2)c(Cl)c1 ?
Response: inactive

Query: Hey, what did the test say about O=C(/C=C/c1ccc(OCc2ccccc2)cc1)NCc1ccc(C(=O)NCc2ccccc2)cc1 ?
Response: inactive

Query: Hey, what did the test say about Oc1ccc2c3c1OC1c4[nH]c5c(c4CC4(O)C(C2)N(CC2CC2)CC[C@]314)CC1(O)C2Cc3ccc(O)c4c3[C@@]1(CCN2CC1CC1)C5O4 (stereo not given in full) ?
Response: inactive

Query: Hey, what did the test say about COc1ccc(C)cc1-c1ccc(-c2cc(C)ccc2OC)o1 ?
Response: inactive

Query: Hey, what did the test say about O=C(CCN1CCOCC1)Nc1ccc(F)cc1F ?
Response: inactive

Query: Hey, what did the test say about CCCC(=O)NC(C(=O)OCC)(N1CCOCC1)C(F)(F)F (stereo not given) ?
Response: inactive

Query: Hey, what did the test say about CC(=O)NC1=C(NCCO)C(=O)c2ccccc2C1=O ?
Response: inactive

---

Entries and their GI50 values follow.
Tested on: SK-OV-3
Assay: NCI tumour cell line growth inhibition, 48 h
Active and inactive are the calls of the source. No stated cut-off is given here; in the data, active = GI50 up to about 1.1 µM and inactive = higher.

Here is how some molecules turned out for GI50.
CC1(C)CCC[C@@]2(C)C1CC[C@@]1(CO)O[C@H](C3=CC(=O)OC3O)C[C@H]12 (stereo not given in full)
29.4 µM (inactive)
CC(=O)OCC1OC(n2ccc(=O)[nH]c2=O)C(OC(C)=O)C(OC(C)=O)C1OC(C)=O (stereo not given)
> 100 µM (inactive)
O=C(Nc1nnc(-c2c(Cl)c(Cl)c(Cl)c(Cl)c2-c2nc3cc(C(=O)c4ccccc4)ccc3[nH]2)o1)c1ccccc1
18.9 µM (inactive)
CC1NC(=O)C(C)C(c2ccccc2)N(N=O)C1c1ccccc1 (stereo not given)
28.2 µM (inactive)

Fill in: SK-OV-3 GI50 for O=C1/C(=C\c2ccc([N+](=O)[O-])o2)SC2NC(COc3ccc(Cl)cc3)=NN12 (stereo not given) = 24 µM (inactive)

Fill in: SK-OV-3 GI50 for O=C(Nc1ccccc1[N+](=O)[O-])c1ccccc1 = > 100 µM (inactive)

Fill in: SK-OV-3 GI50 for Cn1c2ccc([N+](=O)[O-])cc2c(=O)n1Cc1ccccc1F = > 100 µM (inactive)

Fill in: SK-OV-3 GI50 for COc1ccc(S(=O)(=O)O)cc1NS(=O)(=O)c1ccc(C)cc1 = > 100 µM (inactive)

Fill in: SK-OV-3 GI50 for N#Cc1ccc(Oc2nc3ccccc3nc2C(=O)O)cc1 = > 100 µM (inactive)

Fill in: SK-OV-3 GI50 for COc1ccc2oc(=O)c(CC=C(C)C)c(O)c2c1C = > 100 µM (inactive)

---

Entries and their GI50 values follow.
System: HT-29
Assay: NCI tumour cell line growth inhibition, 48 h
Active and inactive are the calls of the source. Rule as the data show it: active = GI50 up to about 1.1 µM and inactive = higher.

CCOC(=O)CO/N=C\C1=CC(=O)C2CC1C2(C)C (stereo not given)
> 100 µM (inactive)

Just so you know, measured GI50 for COc1ccc(-c2c(C#N)c(N)nc(Sc3ccccc3N)c2C#N)cc1 came out at 7.69 µM (inactive)
